Reported pKi values are given for each entry in this list.
MEASURED TARGET: T1, NCoA-1 (UniProt Q15788 257-385, limits assumed)
T1 construct: also called SRC-1
T1 sequence (looked up): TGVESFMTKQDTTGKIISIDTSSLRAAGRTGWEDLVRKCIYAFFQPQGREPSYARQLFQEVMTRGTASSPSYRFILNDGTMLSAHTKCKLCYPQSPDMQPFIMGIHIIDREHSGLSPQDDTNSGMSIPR
TEST NAME: competition fluorescence polarization; displacement of FluoSTAT6 from NCoA-1
Square brackets hold non-standard residues; d marks the D form. Cha = N[C@@H](CC1CCCCC1)C(=O)O
// returns pKi (minus log10 of molar concentration), number only

BINDER	pKi
cyclo(FEWLYWEF[dP]P) (SMILES CC(C)C[C@@H]1NC(=O)[C@H](Cc2c[nH]c3ccccc23)NC(=O)[C@H](CCC(=O)O)NC(=O)[C@H](Cc2ccccc2)NC(=O)[C@@H]2CCCN2C(=O)[C@H]2CCCN2C(=O)[C@H](Cc2ccccc2)NC(=O)[C@H](CCC(=O)O)NC(=O)[C@H](Cc2c[nH]c3ccccc23)NC(=O)[C@H](Cc2ccc(O)cc2)NC1=O, cyclo(-P1..P8-template-)) [Ex. 12]	5.03
cyclo([Cha]EWLAWE[Cha][dP]P) (SMILES CC(C)C[C@@H]1NC(=O)[C@H](Cc2c[nH]c3ccccc23)NC(=O)[C@H](CCC(=O)O)NC(=O)[C@H](CC2CCCCC2)NC(=O)[C@@H]2CCCN2C(=O)[C@H]2CCCN2C(=O)[C@H](CC2CCCCC2)NC(=O)[C@H](CCC(=O)O)NC(=O)[C@H](Cc2c[nH]c3ccccc23)NC(=O)[C@H](C)NC1=O, cyclo(-P1..P8-template-)) [Ex. 26]	5.11

Shifting focus to the binder that follows.
// Input: cyclo(FEWLDWEM[dP]P) (SMILES CSCC[C@@H]1NC(=O)[C@H](CCC(=O)O)NC(=O)[C@H](Cc2c[nH]c3ccccc23)NC(=O)[C@H](CC(=O)O)NC(=O)[C@H](CC(C)C)NC(=O)[C@H](Cc2c[nH]c3ccccc23)NC(=O)[C@H](CCC(=O)O)NC(=O)[C@H](Cc2ccccc2)NC(=O)[C@@H]2CCCN2C(=O)[C@H]2CCCN2C1=O, cyclo(-P1..P8-template-)) [Ex. 16] . Output its pKi only.
5.18
